# ASSAY_EXPLANATION: Half life in human administered as single dose
# Type: ADME, organism-based
# CONDITION: in vivo
OBSERVATION_TYPE: half-life

Asked: If you can, please state the reported half-life value of O=C1Nc2ccc(Cl)cc2[C@@](C#CC2CC2)(C(F)(F)F)O1 [EFAVIRENZ] .
Given back: 52 h

###

# STUDY_SYSTEM: Human immunodeficiency virus type 1 reverse transcriptase (Human immunodeficiency virus 1) (UniProt Q72547)
Labelling field: enter condition met if recorded IC90 is less than 10 nM. Enter condition not met if it equals or exceeds that cut-off.

# COMPOUND, LABEL
records = [
    ("O=C1Nc2ccc([N+](=O)[O-])cc2[C@@](C#CC2CC2)(C(F)(F)F)O1", "condition met"),
    ("O=C1Nc2cccc(F)c2[C@@](C#CC2CC2)(C(F)(F)F)O1", "condition met"),
    ("O=C1Nc2ccc(Cl)cc2[C@@](C#CC2CC2)(C(F)(F)F)N1", "condition met"),
]

Asked: Lab note: confirm whether the reported IC90 for this compound is below 10 nM, equality not counting. compound: CC[C@H]1C(=O)Nc2ccc(F)cc2N1C(=O)OC(C)C [OPAVIRALINE]
Given back: condition met

Asked: Report whether reported IC90 is lower than 10 nM (strictly) for C=CCO[C@]1(C(F)(F)F)OC(=O)Nc2ccc(Cl)cc21
Given back: condition met

###

# ASSAY_EXPLANATION: Tmax in human plasma after the first dose of drug
# Format: ADME, organism-based
OBSERVATION_TYPE: Tmax (h)
Give bare numbers, in h.

Asked: // returns reported Tmax for input O=C1Nc2ccc(Cl)cc2[C@@](C#CC2CC2)(C(F)(F)F)O1 [EFAVIRENZ]
Given back: 5

###

What follows is a collection of IC50 values obtained with Human immunodeficiency virus type 1 reverse transcriptase (Human immunodeficiency virus 1).
Answers are plain numbers, in nM.

# COMPOUND, NUMERIC_READOUT
records = [
    ("C#CC1(C2CC2)c2cc(Cl)ccc2NC(=O)N1C (stereo not given)", 6),
    ("CCOC(=O)[C@@H]1C[C@@]12C(=O)Nc1ccc(Cl)cc12", 59),
    ("CCCCC[C@]12C[C@@]1(C(=O)OCC)C(=O)Nc1ccc(Br)cc12", 1),
    ("CCOC1(c2ccccc2)c2cc(Cl)ccc2NC(=O)N1C (stereo not given)", 56),
    ("C=CCC[C@]12C[C@@]1(C(=O)OCC)C(=O)Nc1ccc(Br)cc12", 1),
    ("COc1ccc2c(c1)N(C(=O)OC(C)C)[C@@H](CSC)C(=O)N2", 2),
    ("CC(C)=CCN1C(C)C(=O)Nc2ccc(Cl)cc2S1(=O)=O (stereo not given)", 800),
    ("CC[C@H]1C(=O)Nc2ccc(F)cc2N1C(=O)OC(C)C", 45),
    ("C[C@@H]1O[C@](/C=C/C2CC2)(C(F)(F)F)c2cc(Cl)ccc2NC1=O", 46),
]

Attention now shifts to the item below.
Asked: Lab note: need IC50 for O=S1(c2ccccc2)=NC(=S)Nc2ccccc21 (stereo not given) on Human immunodeficiency virus type 1 reverse transcriptase (Human immunodeficiency virus 1), anyone have it?
Given back: 950

###

# ASSAY_EXPLANATION: Half life in human administered as multiple doses
# Type: ADME, organism-based
# CONDITION: in vivo
OBSERVATION_TYPE: half-life
Value and unit, in that order.

Asked: Fill blank: measured half-life of the compound O=C1Nc2ccc(Cl)cc2[C@@](C#CC2CC2)(C(F)(F)F)O1 is ____.
Given back: 40 h

###

Human immunodeficiency virus type 1 reverse transcriptase (Human immunodeficiency virus 1): reported IC90 for various molecules.
Give bare numbers, in nM.

# MOLECULE, IC90 (nM)
data = [
    ("CC(C)CCO[C@]1(C(F)(F)F)OC(=O)Nc2ccc(Cl)cc21", 10.1),
    ("O=C1Nc2ccc(Cl)cc2[C@@](C#Cc2ccco2)(C(F)(F)F)O1", 3.8),
    ("Nc1ccc2c(c1)[C@@](C#CC1CC1)(C(F)(F)F)OC(=O)N2", 20.6),
    ("O=C1Nc2ccc(-c3ccccc3)cc2[C@@](C#CC2CC2)(C(F)(F)F)O1", 279),
]

Record IC90 per entry; entries follow.
1. O=C1Nc2ccccc2[C@@](C#CC2CC2)(C(F)(F)F)O1
2. Cc1ccc2c(c1)[C@@](C#CC1CC1)(C(F)(F)F)OC(=O)N2
3. COc1ccc2c(c1)[C@@](C#CC1CC1)(C(F)(F)F)OC(=O)N2
4. Cc1ccc2c(c1)C(O)(C#CC1CC1)C(=O)N2C (stereo not given)

Given back:
10.3
7.11
2
6

Could you tell me IC90 for each of these molecules? They are listed below.
1. CN(C)c1ccc2c(c1)[C@@](C#CC1CC1)(C(F)(F)F)OC(=O)N2
2. O=C1Nc2ccc(Cl)cc2[C@@](C#Cc2ccccn2)(C(F)(F)F)O1
3. CCO[C@]1(C(F)(F)F)OC(=O)Nc2ccc(Cl)cc21

Given back:
1: 8.33; 2: 5.39; 3: 18.3

###

# STUDY_SYSTEM: Human immunodeficiency virus type 1 reverse transcriptase (Human immunodeficiency virus 1) (UniProt Q72547)
We label by threshold. Values of IC90 strictly beneath 0.02 µM are yes. Values of 0.02 µM and up are no.

Worked set:
# COMPOUND, LABEL
records = [
    ("O=C1Nc2ccc(OC(F)(F)F)cc2[C@@](C#CC2CC2)(C(F)(F)F)O1", "yes"),
    ("CC(=O)Nc1ccc2c(c1)[C@@](C#CC1CC1)(C(F)(F)F)OC(=O)N2", "no"),
    ("O=C1Nc2ccc(F)cc2[C@@](C#CC2CC2)(C(F)(F)F)O1", "yes"),
]

Would you kindly look at the next entry?
Asked: Decide: IC90 of CNc1ccc2c(c1)[C@@](C#CC1CC1)(C(F)(F)F)OC(=O)N2 strictly below 0.02 µM?
Given back: yes

###

Parameter 'readout' = log10(IC90); parameter 'system' = UniProt Q72547.
In our notation, the value equals log10 of IC90 in nM.

These solved cases illustrate the format of a correct answer.
# COMPOUND, NUMERIC_READOUT
data = [
    ("CCCCO[C@]1(C(F)(F)F)OC(=O)Nc2ccc(Cl)cc21", 1.01),
    ("CC(C)=CCO[C@]1(C(F)(F)F)OC(=O)Nc2ccc(Cl)cc21", 0.43),
    ("CN1C(=O)C(O)(C#CC2CC2)c2ccccc21 (stereo not given)", 1.60),
]

Here are 2 compounds. What values of log10(IC90) were reported for them?
1. CC(C)C#C[C@]1(C(F)(F)F)NC(=O)Nc2ccc(Cl)cc21
2. CCCO[C@@](C#CC1CC1)(c1cc(CC)c(C)[nH]c1=O)C(F)(F)F

Given back:
[0.48, 1.51]
